Data provenance: patent US20170334973A1

Target: T1, SUDV VLP (Sudan virus (SUDV), UniProt Q66814 33-676)
T1 sequence: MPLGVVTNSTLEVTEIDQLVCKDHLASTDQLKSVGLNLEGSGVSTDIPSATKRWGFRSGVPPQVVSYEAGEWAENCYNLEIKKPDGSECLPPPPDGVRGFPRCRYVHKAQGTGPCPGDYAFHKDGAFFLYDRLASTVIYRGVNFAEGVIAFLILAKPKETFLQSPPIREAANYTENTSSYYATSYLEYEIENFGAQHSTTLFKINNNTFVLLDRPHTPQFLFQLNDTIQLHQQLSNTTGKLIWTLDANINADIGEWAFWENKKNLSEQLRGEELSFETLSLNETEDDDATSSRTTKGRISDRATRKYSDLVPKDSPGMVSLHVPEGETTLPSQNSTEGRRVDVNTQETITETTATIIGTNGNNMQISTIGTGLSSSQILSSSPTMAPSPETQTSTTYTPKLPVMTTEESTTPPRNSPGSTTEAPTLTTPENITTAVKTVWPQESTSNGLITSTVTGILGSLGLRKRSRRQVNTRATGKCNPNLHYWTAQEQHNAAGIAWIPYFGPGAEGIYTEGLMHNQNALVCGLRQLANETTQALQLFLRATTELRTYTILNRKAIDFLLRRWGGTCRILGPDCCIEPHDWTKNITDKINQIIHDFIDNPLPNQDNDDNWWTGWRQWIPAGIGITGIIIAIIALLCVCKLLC
Experiment: ELISA
I'd be grateful if you could share measured EC50 for these entries.
One number for each entry, in nM.

- binder: "FVM14 (antibody, V domains shown) VH: EVQLVQSGAEVKRPGESLKISCQTSGYSFTSTWITWVRQMPGKGLEWLGSIYPGDSETKYNPSFQGHVTISADKSISTTYLQWNSLKASDTATYYCVKGSETWGQGVLVTVSS VL: QAVVTQPASLSASPGASASLTCTFSGGINVAGYNILWYQQKAGSPPRYLLRYKSDSTKDQGSGVPSRFSGSKDASANTGILRISGLQSEDEADYYCAIGHSSGWIFGGGTRLTVL"
  output-unit: "nM"
  measured: 0.157

Please look at the following binder next.
// EC50 value for FVM25 (antibody, V domains shown) VH: EVQLVHSGAEVKRPGESLTISCKTSGYTFTDYWIAWVRQMPGKGLEWMASIYPDDSDTRYNPSFQGHVTISADKSISTTYLQWSSLRASDTATYYCVKGSETWGQGVLVTVSS VL: QLVLTQPASLSASPGTSASLTCTFSGGINVAGYNILWYQQKPGSPPRFLLRYKSDSDNVQGSGVPSHFSGSKDASTNTGILRISGLQSEDEADYYCAIGHSSGWVFGGGTRLTVL : 0.96
